Data provenance: patent US20240270731A1

assay: 7-day repeated oral gavage, body weights of ICR mice; assay type: in vivo; conditions: Day 7, 1 mg/kg oral QD, n=10
Each entry below carries its recorded Weight Gain compared with Day 0.
Write it as a number; the unit g goes unstated.

Use these answered entries as a reference point.
COMPOUND	MEASURED_ATTRIBUTE	UNIT_INFO	RESULT_VALUE
[2H]c1cccc([2H])c1-c1nc(CC([2H])([2H])Oc2ccc(C[C@H](OC)C(=O)O)c3sccc23)c(C)o1 (single isomer, unassigned)	Weight Gain compared with Day 0	g	6.11
[2H]c1c([2H])c([2H])c(-c2nc(CCOc3ccc(C[C@H](OC)C(=O)O)c4sccc34)c(C)o2)c([2H])c1[2H] (single isomer, unassigned)	Weight Gain compared with Day 0	g	5.91
CO[C@@H](Cc1ccc(OCCc2nc(-c3ccccc3)oc2C)c2ccsc12)C(=O)O [Aleglitazar, aleglitazar, reference compound]	Weight Gain compared with Day 0	g	5.34

### Prompt Field request: Weight Gain compared with Day 0 | item: [2H]C([2H])(Cc1nc(-c2ccccc2)oc1C)Oc1ccc(C[C@H](OC)C(=O)O)c2sccc12 (single isomer, unassigned)
### Response 5.44
